experiment: Quantitative High-Throughput drug screen in 47 multiple myeloma cell lines against the NCATS MIPE library collection: XG6_PLB cell viability assay (AID 1919865); details: XG6 myeloma viability, CellTiter-Glo ATP luminescence, 48 h; series mostly up to 45.8 µM; further: nearly all actives have a fitted effect of over 40% in size
Records with an inconclusive call do not appear. Calls of active or inactive are those of the source. The call rests on the fitted dose curve; in most records, active means well fitted cell-killing curve with a large enough effect; inconclusive means small, poorly fitted or top-dose-only effect, or effect the other way; inactive means no such curve, though single readings can be large or run the other way.
Classes used: active, inactive

                                   compound       cat
0  N[C@H]1CN(c2c(F)cc3c(=O)c(C(=O)O)cn(C4C[C@@H]4F)c3c2Cl)CC12CC2 (stereo not given in full)  inactive
1  Nc1nc(N)c2nc(-c3cccc(O)c3)c(-c3cccc(O)c3)nc2n1    active
2  COc1cc(CCc2cc(NC(=O)c3ccc(N4C[C@@H](C)N[C@@H](C)C4)cc3)n[nH]2)cc(OC)c1    active
3  CN1CCCN(C(=O)c2cccc(-c3ccc(C=C4C(=O)Nc5ccc(Cl)cc54)o3)c2)CC1    active
4  C[N+](C)([O-])CCNc1ccc(NCC[N+](C)(C)[O-])c2c1C(=O)c1c(O)ccc(O)c1C2=O    active

----------
assay: qHTS assay for measurement of the activity of small molecule inhibitors on Zika virus induced Caspase-3 activity in human astrocytoma cells (AID 1224859); conditions: SNB-19 ZIKV-induced caspase-3/7, luminescence, 6 h; series mostly up to 45.7 µM
Active and inactive are the calls of the source. Calls come from the whole dose curve; as a rule, active = well fitted inhibition curve with a large enough effect; inconclusive = small, poorly fitted or top-dose-only effect; inactive = no such curve, though single readings can be large or run the other way.
Classes used: active, inactive

>>> print(df.to_string())
                                   molecule       cat
0  COc1cccc2c1C(=O)c1c(O)c3c(c(O)c1C2=O)C[C@@](O)(C(C)=O)C[C@H]3O[C@H]1C[C@H](N)[C@H](O)[C@H](C)O1  inactive
1  C[C@@H](NCc1cc2ccccc2[nH]1)c1cccc2ccccc12  inactive
2  O=c1[nH]c(=O)n([C@H]2C[C@@H](O)[C@@H](CO)O2)cc1F  inactive
3  Cc1[nH]c(C=C2C(=O)Nc3ccccc32)c(C)c1CCC(=O)O    active
4  Cc1ccc(-n2[nH]c(C)c(N=Nc3cccc(-c4cccc(C(=O)O)c4)c3O)c2=O)cc1C  inactive

----------
test: Quantitative High-Throughput drug screen in 47 multiple myeloma cell lines against the NCATS MIPE library collection: MM1R_ATCC cell viability assay (AID 1918981); settings: MM1R multiple myeloma cells, CellTiter-Glo viability, 48 h; series mostly up to 45.8 µM; further: nearly all actives have a fitted effect of over 35% in size
Records with an inconclusive call do not appear. Activity calls are given as the source filed them. Calls follow the shape of the dose curve; as a rule, active = well fitted cell-killing curve with a large enough effect; inconclusive = small, poorly fitted or top-dose-only effect, or effect the other way; inactive = no such curve, though single readings can be large or run the other way.
Classes used: yes = active, no = inactive

>>> print(df.to_string())
                                   molecule  cat
0  C=C1C(=O)O[C@H]2[C@@H]1CCC(C)=CCC[C@@]1(C)O[C@@H]21  yes
1  CC(C)NC[C@@H](C(=O)N1CCN(c2ncnc3c2[C@H](C)C[C@H]3O)CC1)c1ccc(Cl)cc1  yes
2  COc1ccc(S(=O)(=O)Nc2cccnc2Nc2ccc(O)cc2)cc1  yes
3  O=c1ccn([C@@H]2O[C@H](CO)[C@H](O)[C@@H]2F)c(=O)[nH]1   no
4                         COC(=O)C=CC(=O)OC  yes

----------
assay: Quantitative High-Throughput drug screen in 47 multiple myeloma cell lines against the NCATS MIPE library collection: XG6_PLB cell viability assay (AID 1919865); conditions: XG6 myeloma viability, CellTiter-Glo ATP luminescence, 48 h; series mostly up to 45.8 µM; further: nearly all actives have a fitted effect of over 40% in size; further: potency means the concentration at half of the fitted maximal effect
Results filed as inconclusive are left out. The source made the active and inactive calls. The call rests on the fitted dose curve; in most records, active means well fitted cell-killing curve with a large enough effect; inconclusive means small, poorly fitted or top-dose-only effect, or effect the other way; inactive means no such curve, though single readings can be large or run the other way.
# Potency per entry
property.measured: Potency

In [3]: df
Out[3]:
                                   molecule             result
0  COc1cc2c(cc1OC)[C@@H]1C(=O)c3ccc4c(c3O[C@@H]1CO2)C=CC(C)(C)O4    105 nM (active)
1  C[C@H](NC(=O)C(C#N)=Cc1cccc(Br)n1)c1ccccc1   2350 nM (active)
2            CCCCCCCCc1ccc(CCC(N)(CO)CO)cc1   3320 nM (active)
3   O=c1c(O)c(-c2ccc(O)c(O)c2)oc2cc(O)ccc12  18700 nM (active)
4  c1cncc(CN2CCC(n3ncc4c(N5CCOCC5)nc(-c5ccc6[nH]ccc6c5)nc43)CC2)c1   1660 nM (active)

----------
experiment: qHTS of pediatric cancer cell lines to identify multiple opportunities for drug repurposing: Primary screen for Rh18 cells (AID 1347102); conditions: Rh18 rhabdomyosarcoma viability, CellTiter-Glo luminescence, 48 h; series mostly up to 46 µM; further: nearly all actives have a fitted effect of over 65% in size
Results filed as inconclusive are left out. Activity calls are given as the source filed them. Calls come from the whole dose curve; as a rule, active = well fitted cell-killing curve with a large enough effect; inconclusive = small, poorly fitted or top-dose-only effect; inactive = flat fitted curve, though single readings scatter. Starred links: 1 amine or outer side, 2 acyl side, 3 side chain; linkers in the order of their positions; H or OH if unused. Positions of bridges follow the written chain, without caps; N, C: chain ends. Non-standard residues stand in square brackets, D forms with d. Residues, ends and D or L forms follow the SMILES beside them. Chains are numbered I, II in the order given. Actinocin(9to1) = Cc1c2oc3c(C)ccc(C(=O)[*:1])c3nc-2c(C(=O)[*:2])c(N)c1=O; NMeV = CN[CH](C(=O)O)C(C)C; Sar = CNCC(=O)O
Classes used: active, inactive

compound	cat
Cc1ccccc1C(=O)Nc1ccc(C(=O)N2CCCC(O)c3cc(Cl)ccc32)c(C)c1 (stereo not given)	inactive
C[C@H](O)[C@@H]1C(=O)N2C(C(=O)O)=C(S[C@@H]3CN[C@H](CNS(N)(=O)=O)C3)[C@@H](C)[C@@H]12	inactive
Cc1c2oc3c(C)ccc(C(=O)NC4C(=O)NC(C(C)C)C(=O)N5CCCC5C(=O)N(C)CC(=O)N(C)C(C(C)C)C(=O)OC4C)c3nc-2c(C(=O)NC2C(=O)NC(C(C)C)C(=O)N3CCCC3C(=O)N(C)CC(=O)N(C)C(C(C)C)C(=O)OC2C)c(N)c1=O (stereo not given) (I: TVP[Sar][NMeV] / II: TVP[Sar][NMeV]; ester I:1-I:C, II:1-II:C; linker I:N-II:N via Actinocin(9to1); configuration not given here)	active
Oc1cc2c(cc1O)C1c3ccc(O)c(O)c3OCC1(O)C2 (stereo not given)	inactive
CN(C)c1ccc2cc(C(=O)N[C@@H](CCCN=C(N)CCl)C(=O)NCc3ccccc3)ccc2c1	active

----------
test system: CP238; assay: qHTS profiling for inhibitors of Plasmodium falciparum proliferation (AID 504749); further: nearly all actives have a fitted effect of over 60% in size; conditions: P. falciparum in erythrocytes, SYBR Green DNA, 72 h; series mostly up to 28.7 µM
Inconclusive results are not listed. The source made the active and inactive calls. Calls follow the shape of the dose curve; as a rule, active = well fitted inhibition curve with a large enough effect; inconclusive = small, poorly fitted or top-dose-only effect; inactive = flat fitted curve, though single readings scatter.
Classes used: active, inactive

                                   compound       cat
0  Nc1nc2c(c(=O)[nH]1)N(C=O)[C@H](CNc1ccc(C(=O)N[C@@H](CCC(=O)O)C(=O)O)cc1)CN2  inactive
1  COc1ccc2c(c1OC)C(=O)OC2[C@H]1c2c(cc3c(c2OC)OCO3)CCN1C (some centres undefined)  inactive
2  CCCCCCCCCCCC(CC1OC(=O)C1CCCCCC)OC(=O)C(CC(C)C)NC=O (centres undefined)    active
3      OCC(O)C(O)C(O)CO (centres undefined)  inactive

----------
assay: Quantitative High-Throughput drug screen in 47 multiple myeloma cell lines against the NCATS MIPE library collection: OCIMY7_PLB cell viability assay (AID 1918987); settings: OCI-MY7 myeloma viability, CellTiter-Glo ATP, 48 h; further: nearly all actives have a fitted effect of over 65% in size
Results filed as inconclusive are left out. Calls of active or inactive are those of the source. Calls come from the whole dose curve; as a rule, active = well fitted cell-killing curve with a large enough effect; inconclusive = small, poorly fitted or top-dose-only effect, or effect the other way; inactive = no such curve, though single readings can be large or run the other way.
Classes used: active, inactive

In [3]: df
Out[3]:
                                   molecule       cat
0  CCN(CC)CCNC(=O)c1c(C)[nH]c(C=C2C(=O)Nc3ccc(F)cc32)c1C    active
1  FC(F)c1nc2ccccc2n1-c1nc(N2CCOCC2)nc(N2CCOCC2)n1    active
2  COc1cccc2c1C(=O)c1c(O)c3c(c(O)c1C2=O)C[C@@](O)(C(=O)CO)C[C@@H]3O[C@H]1C[C@H](N)[C@@H](O)[C@H](C)O1    active
3        NC(=O)Nc1sc(-c2ccc(F)cc2)cc1C(N)=O    active
4      O=C1c2cccc(O)c2C(=O)c2c(O)cc(CO)cc21  inactive

----------
Test: Quantitative High-Throughput drug screen in 47 multiple myeloma cell lines against the NCATS MIPE library collection: PCM6_Riken cell viability assay (AID 1919870); further: nearly all actives have a fitted effect of over 30% in size; further: potency means the concentration at half of the fitted maximal effect
Settings: CellTiter-Glo ATP, 48 h; series mostly up to 45.8 µM
Text: PI: Beverly A. Mock Ph.D. Laboratory of Cancer Biology and Genetics, Center for Cancer Research, National Cancer Institute, National Institute of Health, Bethesda, Maryland […] 5; Detector; 425V; Luminescence; Viewlux PerkinElmer. […] 1. […] Briefly, the corresponding myeloma cell lines were screened in 1,536-well plates with 500 cells, 5-uL per well for inhibition of cell viability (assessed by measuring ATP levels with CellTiterGlo). […]
Records with an inconclusive call do not appear. The source made the active and inactive calls. Calls follow the shape of the dose curve; as a rule, active = well fitted cell-killing curve with a large enough effect; inconclusive = small, poorly fitted or top-dose-only effect, or effect the other way; inactive = no such curve, though single readings can be large or run the other way.
property.measured: Potency

                                   compound  property_measured             result
0  COc1cc2c(Nc3ccc(Cl)c(Cl)c3F)ncnc2cc1OCC1C[C@@H]2CN(C)C[C@H]2C1            Potency   1.32 µM (active)
1  O=c1[nH]c(=O)n([C@H]2C[C@@H](O)[C@@H](CO)O2)cc1F            Potency   14.8 µM (active)
2         CCCCOc1ccc(C(=O)Nc2ccc(F)cc2F)cc1            Potency           inactive
3  Cc1cncc2cccc(S(=O)(=O)N3CCCN(C(=O)CN)C[C@@H]3C)c12            Potency   20.9 µM (active)
4  Oc1cc(-c2nc(-c3ccccc3)[nH]c2-c2ccncc2)ccc1Cl            Potency   2.96 µM (active)
5  COc1ccc(C[C@@H](C)[C@@H](C)Cc2ccc(OC)c(OC)c2)cc1OC            Potency  0.332 µM (active)
6  CC(C)(N)c1ccc(-c2nc3ccccc3nc2-c2ccccc2)cc1            Potency   10.5 µM (active)
7  Cc1ccc(O)c(C(CCN(C(C)C)C(C)C)c2ccccc2)c1 (centres undefined)            Potency           inactive
8  CC(C)(O)CC[C@@H](O)[C@](C)(O)[C@H]1CC[C@@]2(O)C3=CC(=O)[C@@H]4C[C@@H](O)[C@@H](O)C[C@]4(C)[C@@H]3CC[C@]12C            Potency           inactive
